Reported Ki values for a set of compounds
- target-of-assay: human orexin 2 receptors (Homo sapiens (Human))
- Sequence (O43614 whole entry): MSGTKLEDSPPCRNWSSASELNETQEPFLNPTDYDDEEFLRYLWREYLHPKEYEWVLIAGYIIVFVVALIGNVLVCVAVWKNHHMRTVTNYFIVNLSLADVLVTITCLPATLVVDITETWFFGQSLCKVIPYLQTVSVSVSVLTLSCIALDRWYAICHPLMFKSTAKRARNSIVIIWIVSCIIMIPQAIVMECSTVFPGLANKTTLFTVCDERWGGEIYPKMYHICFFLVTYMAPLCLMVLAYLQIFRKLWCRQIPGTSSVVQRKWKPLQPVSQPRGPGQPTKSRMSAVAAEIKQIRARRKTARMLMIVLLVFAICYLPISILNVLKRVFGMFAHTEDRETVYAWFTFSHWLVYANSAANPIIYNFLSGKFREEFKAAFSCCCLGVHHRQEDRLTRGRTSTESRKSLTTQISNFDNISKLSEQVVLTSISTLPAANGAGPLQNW
- measurement-protocol: Calcium Accumulation in Cells (FLIPR), antagonism of orexin A
- recorded-conditions: antagonism of orexin A, Cheng-Prusoff corrected; read-out: FLIPR hOx2R Ki
measurement-kind: Ki (nM)

>>> experimental_value("Cc1ccc([C@H](C)NC(=O)COc2cc(C)c3c(C(C)C)nn(C)c3n2)cc1")
32
>>> experimental_value("Cc1ccc([C@H](C)NC(=O)COc2cc(C)c3c(-c4cscn4)nn(C)c3n2)cc1")
5
>>> experimental_value("Cc1ccc([C@H](C)NC(=O)COc2cc(C)c3c(-c4cnn(C)c4)nn(C)c3n2)cc1")
89
>>> experimental_value("Cc1cc(OCC(=O)NC(C)CCc2ccccc2)nc2c1c(-c1ccccc1)nn2C (centres unmarked)")
49
>>> experimental_value("COc1ccc(C(C)NC(=O)COc2cc(C(F)(F)F)c3c(C4CC4)nn(C)c3n2)cn1 (centres unmarked)")
72
>>> experimental_value("Cc1ccc([C@H](C)NC(=O)COc2cc(C)c3c(-c4cc(C)nn4C)nn(C)c3n2)cc1")
923
>>> experimental_value("Cn1nc(-c2ccccc2)c2c(C(F)(F)F)cc(OCC(=O)NC3CCCC3)nc21")
324
>>> experimental_value("Cc1n[nH]c(C)c1C(C)NC(=O)COc1cc(C)c2c(C3CC3)nn(C)c2n1 (centres unmarked)")
606
>>> experimental_value("Cn1nc(-c2ccccc2)c2c(C(F)(F)F)cc(OCC(=O)NCc3ccccc3)nc21")
1380
>>> experimental_value("COc1ccc2c(c1)CC[C@@H]2NC(=O)COc1cc(C(F)(F)F)c2c(C3CC3)nn(C)c2n1")
3
>>> experimental_value("CC(Oc1cc(C(F)(F)F)c2c(-c3ccccc3)nn(C)c2n1)C(=O)N[C@@H](C)c1ccccc1 (single isomer, unassigned)")
91
>>> experimental_value("Cc1cc(OCC(=O)NC(C)c2ccc3[nH]ccc3c2)nc2c1c(C1CC1)nn2C (centres unmarked)")
94
>>> experimental_value("COc1ccc([C@H](C)NC(=O)C(C)Oc2cc(C)c3c(C4CC4)nn(C)c3n2)cc1 (some centres unmarked)")
1070
>>> experimental_value("COc1cccc2c1CCCC2NC(=O)COc1cc(C)c2c(C3CC3)nn(C)c2n1 (centres unmarked)")
301
>>> experimental_value("C[C@H](NC(=O)COc1cc(C(F)(F)F)c2c(-c3ccccc3F)nn(C)c2n1)c1ccccc1")
30
>>> experimental_value("COc1ccc([C@H](C)NC(=O)COc2cc(C(F)F)c3c(-c4ccccc4)nn(C)c3n2)cc1")
2
>>> experimental_value("Cc1ccc([C@H](C)NC(=O)COc2cc(C)c3c(-c4cncs4)nn(C)c3n2)cc1")
11
>>> experimental_value("Cc1ccc([C@H](C)NC(=O)COc2cc(C)c3c(-c4ncccn4)nn(C)c3n2)cc1")
9
>>> experimental_value("Cc1ccc([C@H](C)NC(=O)COc2cc(C)c3c(-c4ccnn4C)nn(C)c3n2)cc1")
2220
>>> experimental_value("C[C@H](NC(=O)COc1cc(C(F)(F)F)c2c(-c3cccc(Cl)c3)nn(C)c2n1)c1ccccc1")
106
>>> experimental_value("COc1cc2c(cc1OC)C(NC(=O)COc1cc(C)c3c(C4CC4)nn(C)c3n1)CC2 (centres unmarked)")
52
>>> experimental_value("Cc1ccc(CNC(=O)COc2cc(C(F)(F)F)c3c(-c4ccccc4)nn(C)c3n2)cc1")
115
>>> experimental_value("Cc1ccc([C@H](C)NC(=O)COc2ccc3c(C4CC4)nn(C)c3n2)cc1")
237
>>> experimental_value("Cc1ccc([C@H](C)NC(=O)COc2cc(C(F)F)c3c(C4CC4)nn(C)c3n2)cc1")
5
>>> experimental_value("COc1ccc(C(C)NC(=O)COc2cc(C)c3c(C(C)C)nn(C)c3n2)cn1 (centres unmarked)")
1220
>>> experimental_value("Cc1ccc([C@H](C)NC(=O)COc2cc(C)c3c(-c4ccc(C)cn4)nn(C)c3n2)cc1")
5
>>> experimental_value("Cc1cccc(C(C)NC(=O)COc2cc(C)c3c(C4CC4)nn(C)c3n2)c1 (centres unmarked)")
900
>>> experimental_value("Cc1ccc([C@H](C)NC(=O)COc2cc(C)c3c(-c4cncn4C)nn(C)c3n2)cc1")
1630
>>> experimental_value("Cc1ccc(C(C)NC(=O)COc2cc(C(F)F)c3c(C4CC4)nn(C)c3n2)cn1 (centres unmarked)")
800
>>> experimental_value("Cc1ccc2c(n1)CC[C@@H]2NC(=O)COc1cc(C(F)F)c2c(-c3cc(C)oc3C)nn(C)c2n1")
64
>>> experimental_value("COc1ccc([C@H](C)NC(=O)COc2cc(C)c3c(C(C)C)nn(C)c3n2)cc1")
105
>>> experimental_value("Cc1cc(OCC(=O)NC(C)c2cnc3c(ccn3C)c2)nc2c1c(C1CC1)nn2C (centres unmarked)")
165
